- measurement.notes: Half life in dog at 5 mg/kg, po or 1 mg/kg, iv
- Format: ADME, organism-based, Canis lupus familiaris
- experimental.conditions: in vivo
reported.property: half-life
The reply should read as a number followed by its unit.

Fill in: half-life of CC(C)(F)C[C@H](N[C@@H](c1ccc(-c2ccc(S(C)(=O)=O)cc2)cc1)C(F)F)C(=O)NC1(C#N)CC1 is ___
35 h

Reference source for all entries: ChEMBL document CHEMBL1667813
